Entries and their log10 concentration at 1 h values follow.
- ASSAY SUMMARY: Mouse pharmacokinetic study, intravenous dosing
- Assay type: in vivo
- CONDITION DETAILS: male, C57BL/6, mouse, iv; plasma, 10 mg/kg i.v., time 1 h; read-out: Parent compound concentration following intravenous administration
- Method: Pharmacokinetic studies were carried out in 6-8-week-old male C57BL/6 mice having free access to food and water. […] For both intravenous and oral routes, the mice were restrained manually at the designated time points, with ca. 110 μL of blood being taken into K2EDTA tubes via the facial vein. Blood samples were put on ice and centrifuged to obtain plasma samples from which the concentration at each time point was measured by LC-MS/MS.
MEASURED QUANTITY: log10 concentration at 1 h (log10 of the value in ng/mL)

| MOL SMILES | MEASURED QUANTITY | REPORTED RESULT |
| --- | --- | --- |
| C=C(CC(=O)OC1CCCCC1)C(=O)OCc1nnn[nH]1 | log10 concentration at 1 h | 1.58 |
| C=C(CC(=O)O[C@H](CC)CCCCC)C(=O)OCC(=O)O | log10 concentration at 1 h | 2.77 |
| C=C(CC(=O)OC1CC2(CCC2)C1)C(=O)OCC(=O)O | log10 concentration at 1 h | 0.81 |
| C=C(CC(=O)OC(C)(C)CCCCCC)C(=O)OCC(=O)O | log10 concentration at 1 h | 2.60 |
| C=C(CC(=O)O[C@H](C)CCCCCC)C(=O)OCc1nn[nH]n1 | log10 concentration at 1 h | 1.95 |

====

- Test system: IL-6 cytokine output from THP-1s
- ASSAY SUMMARY: THP-1 AlphaLISA IL-6 cytokine assay
- Type: cell-based, human
- CONDITION DETAILS: Homo sapiens; PMA-differentiated THP-1 cells, LPS 24 hr then Nigericin 1 hour
The label is yes for IC50 below 7 µM and no for IC50 equal to or exceeding 7 µM.

| COMPOUND | LABEL CLASS |
| --- | --- |
| C=C(CC(=O)OC)C(=O)OCCS(C)(=O)=O [Example 12] | no |
| C=C(CC(=O)OCCCCCCCC)C(=O)OC(C)CS(C)(=O)=O (stereo not shown) [Example 19] | yes |
| C=C(CC(=O)OCCCCCC)C(=O)OCCS(C)(=O)=O [Example 14] | yes |
| C=C(CC(=O)OCC(C)(C)C)C(=O)OCC(=O)O [Example 92] | no |
| C=C(CC(=O)OC1CCCCCCC1)C(=O)OCC(=O)O [Example 90] | no |
| C=C(CC(=O)O[C@H](C)CCCCCC)C(=O)OC1CCOCC1 [Example 73] | no |
| C=C(CC(=O)OC1CCCCC1)C(=O)OCCN1CCCC1=O [Example 65] | no |
| C=C(CC(=O)OCCCCCCCC)C(=O)OCC(=O)O [Example 49] | yes |
| C=C(CC(=O)OCCCCCCCC)C(=O)OC(C)OC(C)=O (stereo not shown) [Example 46] | yes |
| C=C(CC(=O)OCCCCCCCC)C(=O)OCCN1CCOCC1 [Example 35] | yes |
| C=C(CC(=O)O[C@H](C)CCCCCC)C(=O)OC1CN(C(C)=O)C1 [Example 58] | yes |
| C=C(CC(=O)OC1CCCCCCC1)C(=O)OC1CCOCC1 [Example 70] | no |
